system_tested: T1, human CX3CR1 (human, UniProt P49238 1-355)
T1 construct: overexpressed on CHO, BA/F3 or HEK293T cells; also called huCX3CR1; hCX3CR1
T1 sequence: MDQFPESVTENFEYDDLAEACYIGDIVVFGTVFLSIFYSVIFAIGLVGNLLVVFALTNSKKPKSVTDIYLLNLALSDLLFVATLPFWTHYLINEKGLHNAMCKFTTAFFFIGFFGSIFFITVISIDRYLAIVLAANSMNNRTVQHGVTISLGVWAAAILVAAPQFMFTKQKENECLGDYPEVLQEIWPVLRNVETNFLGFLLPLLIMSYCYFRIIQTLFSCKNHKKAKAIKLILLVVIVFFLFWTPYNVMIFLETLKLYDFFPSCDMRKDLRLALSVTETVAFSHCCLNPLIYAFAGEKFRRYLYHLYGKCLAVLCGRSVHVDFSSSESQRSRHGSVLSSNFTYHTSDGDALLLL
experiment_summary: fractalkine competition FACS
Rule: IC50 below 2 nM gives class 1. Equal to or above 2 nM gives class 0.

| binder | classification |
| --- | --- |
| C100CX3CR1BII061 (VHH, 66B02 with S11L, A14P, E16G, A74S, K83R, Q108L; not shown: myc/His tag) VHH: EVQLVESGGGLVQPGGSLRLSCAASGSIFSSNAMAWYRQAPGKRRDLVAAINSVGVTKYADSVKGRFTISRDNSKNTVYLQMNSLRPEDTAVYYCTSDPRRGWDTRYWGQGTLVTVSS | class 1 |
| C100CX3CR1BII047 (VHH, 66B02 with S11L, A14P, A74S, K83R, Q108L; not shown: myc/His tag) VHH: EVQLVESGGGLVQPGESLRLSCAASGSIFSSNAMAWYRQAPGKRRDLVAAINSVGVTKYADSVKGRFTISRDNSKNTVYLQMNSLRPEDTAVYYCTSDPRRGWDTRYWGQGTLVTVSS | class 0 |
| C100CX3CR1BII057 (VHH, 66B02 with S11L, A14P, E16G, D46E, A74S, K83R, Q108L; not shown: myc/His tag) VHH: EVQLVESGGGLVQPGGSLRLSCAASGSIFSSNAMAWYRQAPGKRRELVAAINSVGVTKYADSVKGRFTISRDNSKNTVYLQMNSLRPEDTAVYYCTSDPRRGWDTRYWGQGTLVTVSS | class 0 |
| C100CX3CR1BII045 (VHH, 66B02 with E1D, A14P, A74S, K83R, Q108L; not shown: myc/His tag) VHH: DVQLVESGGGSVQPGESLRLSCAASGSIFSSNAMAWYRQAPGKRRDLVAAINSVGVTKYADSVKGRFTISRDNSKNTVYLQMNSLRPEDTAVYYCTSDPRRGWDTRYWGQGTLVTVSS | class 0 |
| C100CX3CR1BII050 (VHH, 66B02 with A14P, D46E, A74S, K83R, Q108L; not shown: myc/His tag) VHH: EVQLVESGGGSVQPGESLRLSCAASGSIFSSNAMAWYRQAPGKRRELVAAINSVGVTKYADSVKGRFTISRDNSKNTVYLQMNSLRPEDTAVYYCTSDPRRGWDTRYWGQGTLVTVSS | class 0 |
